system: MDA-MB-468 breast; assay: NCI tumour cell line growth inhibition, 48 h; in the data active = GI50 below about 0.43 µM; inactive = the rest
Labels: T (active), F (inactive)

[[record]]
chemical_smiles = "Cn1cc(C2=C(n3ccc4ccccc43)C(=O)NC2=O)c2ccccc21"
category = "F"

[[record]]
chemical_smiles = "O=Cc1cn(Cc2ccccc2)c2ccccc12"
category = "T"

[[record]]
chemical_smiles = "CCNCCNc1cc(-c2ccc(Cl)c(Cl)c2)c(C#N)c2nc3ccccc3n12"
category = "F"

[[record]]
chemical_smiles = "Cn1cc(-c2csc(-c3c[nH]c4ccccc34)n2)c2cccnc21"
category = "F"

[[record]]
chemical_smiles = "O=C(Nc1ccccc1C(=O)N/N=C(\\c1ccccc1)c1ccccn1)c1ccccc1"
category = "T"

[[record]]
chemical_smiles = "O=C1NC(=NCc2c(Cl)cccc2Cl)S/C1=C\\c1ccc2ncccc2c1"
category = "F"

